target: Microtubule-associated protein tau (Homo sapiens); assay: qHTS for Inhibitors of Tau Fibril Formation, Thioflavin T Binding; details: recombinant tau K18 P301L, heparin-induced fibrillization, ThT fluorescence; series mostly up to 57.4 µM; further: nearly all actives have a fitted effect of over 55% in size
In all, about 270,000 compounds went through this assay and about 5,800 (2.1%) were called active. Not shown: some 16% with an inconclusive outcome. The call rests on the fitted dose curve; in most records, active means well fitted inhibition curve with a large enough effect; inconclusive means small, poorly fitted or top-dose-only effect; inactive means flat fitted curve, though single readings scatter. What follows is part of a selection rich in actives, with near analogues and random picks from the rest.
Outcomes: active, inactive

compound="Cc1ccc(C)c(NC(CC(=O)c2ccccc2)C(=O)OCC(=O)c2cccs2)c1 (stereo unspecified)" label=inactive
compound=COc1ccc2nc(Nc3nc4cc5c(cc4s3)OCCO5)sc2c1 label=active
compound=COc1ccc2nc(Nc3nc(-c4cc5ccccc5oc4=O)cs3)sc2c1 label=inactive
compound=CCOC(=O)C1=C(c2ccc(OC)cc2)C(=O)c2ccccc2C1=O label=active
compound="Cc1ccc(NC(=O)Cn2nnc3sc4c(c3c2=O)CCC(C)C4)cc1 (stereo unspecified)" label=inactive
compound=Cc1ccc(C(=O)COC(=O)CCCC(=O)NC2CCCCC2)cc1[N+](=O)[O-] label=inactive
compound=O=C(CN1C(=O)CCn2nc(-c3ccccc3)cc21)NCc1ccccc1 label=inactive
compound=Cc1cccc(-n2ccnc2SCC(=O)Nc2cccc3ccccc23)c1C label=inactive
compound=CN(C(=O)CSc1nc2ccc(NC(=O)COc3ccccc3)cc2s1)c1ccccc1 label=inactive
compound="COc1cc(Cl)c(NC(=O)CC(C)S(=O)(=O)c2cc3c(cc2C)NC(=O)CO3)c(OC)c1 (stereo unspecified)" label=inactive
compound=Cc1cc(C=O)c(C)n1-c1ccc(NC2CCCCC2)c([N+](=O)[O-])c1 label=active
compound=O=[N+]([O-])c1cc(S(=O)(=O)Nc2cccc(Cl)c2)ccc1N=Nc1c(O)[nH]c2ccccc12 label=active
compound="Cc1ccc(N2C(=O)C3C(c4ccccc4)(C2=O)C3(c2ccccc2)c2ccccc2)cc1 (stereo unspecified)" label=inactive
compound=Cc1ccc(/C=C/C(=O)Nc2ccc([N+](=O)[O-])c(NC(=O)/C=C/c3ccc(C)o3)c2)o1 label=active
compound=Cc1[nH]n(-c2ccc(Cl)cc2)c(=O)c1/C=N/n1c(C)nc2ccccc2c1=O label=inactive
compound=CN1CCN(c2ccc(S(=O)(=O)Nc3ccccc3)cc2[N+](=O)[O-])CC1 label=inactive
compound=O=C(N/N=C\c1ccc(Br)cc1)c1ccc(Cn2cccn2)o1 label=inactive
compound=Cc1cc(OCC(=O)Nc2ncn[nH]2)c(C)c(C)c1Br label=inactive
compound=CCN(CC)S(=O)(=O)c1cc([N+](=O)[O-])ccc1N=Nc1c(O)n(C)c2ccccc12 label=inactive
compound=CC(=O)Nc1ccc(S(=O)(=O)N2CCN(c3ccccc3)CC2)cc1 label=inactive
compound="Cc1ccccc1C(CC(=O)c1cccs1)C(C#N)C#N (stereo unspecified)" label=active

###

Molecular target: Microtubule-associated protein tau (Homo sapiens) (UniProt P10636)
Sequence (P10636 561-689 P618L limits assumed): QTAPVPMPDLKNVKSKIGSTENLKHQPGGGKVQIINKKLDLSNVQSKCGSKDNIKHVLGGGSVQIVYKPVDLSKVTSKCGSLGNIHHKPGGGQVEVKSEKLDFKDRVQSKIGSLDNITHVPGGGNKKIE
Assay: qHTS for Inhibitors of Tau Fibril Formation, Thioflavin T Binding; further: nearly all actives have a fitted effect of over 55% in size
Settings: recombinant tau K18 P301L, heparin-induced fibrillization, ThT fluorescence; series mostly up to 57.4 µM
Description: NIH Molecular Libraries Probe Production Network [MLPCN] NIH Chemical Genomics Center [NCGC] Assay Provider: Carlo Ballatore, University of Pennsylvania The microtubule-associated protein tau is an abundant protein in the axons of neurons that stabilizes microtubules. With its ability to modulate microtubule dynamics, tau contributes directly or indirectly, to key structural and regulatory cellular functions. […] This assay monitors tau fibrillization by Thioflavin T (ThT) fluorescence. […]
About 5,800 (2.1%) of roughly 270,000 compounds were called active. About 16% were inconclusive and are not listed. The call rests on the fitted dose curve; in most records, active means well fitted inhibition curve with a large enough effect; inconclusive means small, poorly fitted or top-dose-only effect; inactive means flat fitted curve, though single readings scatter. The sample as a whole holds a higher share of actives than the screen did.
Classes used: Yes (active), No (inactive)

compound="CC1(C)CC(CC(=O)O)C(=O)O1 (stereo unspecified)" measured_on="Microtubule-associated protein tau (Homo sapiens) (UniProt P10636)" label=No
compound=O=C(Nc1nc2ccccc2s1)c1ccc2c(c1)OCO2 measured_on="Microtubule-associated protein tau (Homo sapiens) (UniProt P10636)" label=No
compound=Cc1ccccc1OCCSc1nc2ccc(NC(=O)c3ccco3)cc2s1 measured_on="Microtubule-associated protein tau (Homo sapiens) (UniProt P10636)" label=No
compound=CC(=O)Nc1ccc(-c2csc(NC=C3C(=O)OC(C)(C)OC3=O)n2)cc1 measured_on="Microtubule-associated protein tau (Homo sapiens) (UniProt P10636)" label=No
compound=CC1CCN(S(=O)(=O)c2ccc3c(c2)N(CC(=O)NCCc2ccccc2)C(=O)CO3)CC1 measured_on="Microtubule-associated protein tau (Homo sapiens) (UniProt P10636)" label=No
compound=Cc1cc(C)c2nc(NC(=O)c3ccc4c(c3)OCO4)sc2c1 measured_on="Microtubule-associated protein tau (Homo sapiens) (UniProt P10636)" label=No
compound=Nc1c(-c2cccc(Cl)c2)cnn1-c1cccc([N+](=O)[O-])c1 measured_on="Microtubule-associated protein tau (Homo sapiens) (UniProt P10636)" label=Yes
compound="C/C(CC1CC(C)(C)OC1=O)=N/Nc1nc(-c2ccccc2)cs1 (stereo unspecified)" measured_on="Microtubule-associated protein tau (Homo sapiens) (UniProt P10636)" label=Yes
compound=COc1cccc(C(=O)NCc2ccc3c(c2)CCN3C(=O)c2ccncc2)c1 measured_on="Microtubule-associated protein tau (Homo sapiens) (UniProt P10636)" label=No
compound=CCOc1ccc(CNC(=O)c2ccc3nc(CC)c(CC)nc3c2)cc1OC measured_on="Microtubule-associated protein tau (Homo sapiens) (UniProt P10636)" label=No
compound=Cc1ccc2sc(NNC(=O)c3ccc4c(c3)OCCO4)nc2c1C measured_on="Microtubule-associated protein tau (Homo sapiens) (UniProt P10636)" label=Yes

###

biological target: Microtubule-associated protein tau (Homo sapiens) (UniProt P10636); assay: qHTS for Inhibitors of Tau Fibril Formation, Thioflavin T Binding; conditions: recombinant tau K18 P301L, heparin-induced fibrillization, ThT fluorescence; series mostly up to 57.4 µM; further: nearly all actives have a fitted effect of over 55% in size
The whole screen tested about 270,000 compounds, of which about 5,800 (2.1%) were called active. Roughly 16% stayed inconclusive and do not appear here. Calls come from the whole dose curve; as a rule, active = well fitted inhibition curve with a large enough effect; inconclusive = small, poorly fitted or top-dose-only effect; inactive = flat fitted curve, though single readings scatter. For the sample, actives were picked, then their nearest neighbours and some compounds at random.
Possible outcomes: Y (active), N (inactive)

compound=Cc1ccc(Nc2c(-c3ccc(C)s3)nc3ccccn23)cc1 label=N
compound=Cc1ccc(Nc2c(-c3ccc(N(C)C)cc3)nc3nc[nH]n23)cc1 label=Y
compound=O=C(Nc1cccc([N+](=O)[O-])c1)Nc1ccc(Cl)cn1 label=N
compound=CSc1ncc(C(=O)NCc2ccccc2Cl)c(C(F)(F)F)n1 label=N
compound=Cc1cccc(Oc2c([N+](=O)[O-])c(=O)n(C)c3ccccc23)c1 label=Y
compound="CC(C)CCN(C(=O)Nc1ccc(Cl)c(Cl)c1)C(C)c1cccs1 (stereo unspecified)" label=N
compound=Cc1nn(C)c(Oc2ccccc2)c1[N+](=O)[O-] label=N
compound="Oc1cc(O)c2c(c1)OC(c1ccc(O)c(O)c1)C(O)C2 (stereo unspecified)" label=Y
compound=C=Cc1ccc(Cn2c(C(=O)O)c(CNC3CCCC3)c3ccc(C)cc32)cc1 label=N
compound=O=[N+]([O-])c1cccc(C2=NCCS2)c1 label=N
compound=Cc1ccc2c(=O)c(C(=O)c3ccc(Cl)cc3)cn(CC(=O)NC3CCCCC3)c2n1 label=N

###

biological target: Microtubule-associated protein tau (Homo sapiens); assay: qHTS for Inhibitors of Tau Fibril Formation, Thioflavin T Binding; settings: recombinant tau K18 P301L (four-repeat tau fragment), heparin-induced fibrillization, ThT fluorescence; series mostly up to 57.4 µM; further: nearly all actives have a fitted effect of over 55% in size
Screen size: about 270,000 compounds; about 5,800 (2.1%) were called active. Not shown: some 16% with an inconclusive outcome. Calls follow the shape of the dose curve; as a rule, active = well fitted inhibition curve with a large enough effect; inconclusive = small, poorly fitted or top-dose-only effect; inactive = flat fitted curve, though single readings scatter. Many of the other results were omitted from the sample, so actives are more common in it than they were.
Labels: YES for active, NO for inactive

compound=COc1ccccc1N1CCN(S(=O)(=O)CCNC(=O)COc2ccc(F)cc2)CC1 label=NO
compound="CC(C)c1ccc(C2CC(=O)N3CN(C4CCCCC4)CSC3=C2C#N)cc1 (stereo not given)" label=YES
compound=CCCOc1cccc(C(=O)Nc2cccc(NC(=O)c3ccc(C(C)(C)C)cc3)c2)c1 label=NO
compound=COc1cc(-c2noc(-c3ccc(N4CCCC4)c([N+](=O)[O-])c3)n2)cc(OC)c1OC label=NO
compound=COc1ccc(CCNC(=O)c2ccc3c(c2)sc2nc(-c4ccc(C)cc4)cn23)cc1OC label=NO
compound=CCN1/C(=C/c2ccc3ccc(C)cc3[n+]2CC)Sc2ccccc21 label=NO
compound=COc1ccc(Cl)cc1S(=O)(=O)N1CCC(c2ccncc2)CC1 label=NO
compound=COc1ccc(CNC(=O)C2=Cc3cccc(OC)c3OC2)cc1OC label=NO
compound=COc1cc(CNC(=O)c2cc3n(n2)CCCN(Cc2cccc(F)c2)C3=O)cc(OC)c1OC label=NO
compound=CC(=O)c1ccc(NC(=O)CCc2nc(-c3ccc(C)cc3)no2)cc1 label=NO
